test system: duck salad; assay: Test B flood test duck salad; assay type: in vivo, Heteranthera limosa; settings: Rate 500 g/ha; Pre-emergence; flood test species; scale 0 to 10 (0 no effect, 10 complete control)
Each item that follows carries a reported Ducksalad plant response rating.
Output: the number by itself.

Here's what some known entries look like.
COMPOUND	Ducksalad plant response rating
CC(C)N(C(=O)n1oc(=O)n(CC(=O)C(C)(C)C)c1=O)c1ccc(F)cc1 [Compound 216]	0
C=CC(CC)n1c(=O)on(C(=O)N(c2ccccc2)C(C)C)c1=O (stereo not shown) [Compound 455]	0
CC(C)N(C(=O)n1oc(=O)n(C(CF)CF)c1=O)c1ccc(Cl)cc1 [Compound 468]	0

Could you tell me which Ducksalad plant response rating is on file for CCc1ccc(N(C(=O)n2oc(=O)n(-c3ccccc3C)c2=O)C(C)C)cc1 [Compound 230] ?
0

May I ask what Ducksalad plant response rating has been recorded for C=CCn1c(=O)on(C(=O)N(c2ccc(F)cc2)C2CCCCCC2)c1=O [Compound 249] ?
0

Field request: Ducksalad plant response rating | item: CC(C)N(C(=O)n1oc(=O)n(Cc2nnsc2Cl)c1=O)c1ccccc1 [Compound 321]
0

Could you tell me which Ducksalad plant response rating is on file for COC(C)n1c(=O)on(C(=O)N(c2ccccc2)C(C)C)c1=O (stereo not shown) [Compound 441] ?
0

Sample CCOc1nc(C(F)(F)F)c(Cn2c(=O)on(C(=O)N(c3ccc(F)cc3)C(C)C)c2=O)s1 [Compound 381] — what was its Ducksalad plant response rating?
0

Given COC(=O)CCCn1c(=O)on(C(=O)N(c2ccc(F)cc2)C(C)C)c1=O [Compound 266] , state its recorded Ducksalad plant response rating.
0

// returns reported Ducksalad plant response rating for input Cc1ccccc1-n1c(=O)on(C(=O)N(c2ccc3c(c2)CCC3)C(C)C)c1=O [Compound 278]
0

Consider the compound shown here: CCOc1nc(C(F)(F)F)c(Cn2c(=O)on(C(=O)N(c3ccccc3)C(C)C)c2=O)s1 [Compound 379] What is its recorded Ducksalad plant response rating?
0

// Ducksalad plant response rating lookup, key: CC(C)N(C(=O)n1oc(=O)n(C2CCCC2)c1=O)c1ccccc1 [Compound 283]
0

Which measured Ducksalad plant response rating value corresponds to CC(C)N(C(=O)n1oc(=O)n(-c2cccnc2)c1=O)c1ccc(F)cc1 [Compound 234] ?
0
